The following compounds have recorded pIC50 on UniProt Q9NWZ3.
Sequence (Q9NWZ3 whole entry): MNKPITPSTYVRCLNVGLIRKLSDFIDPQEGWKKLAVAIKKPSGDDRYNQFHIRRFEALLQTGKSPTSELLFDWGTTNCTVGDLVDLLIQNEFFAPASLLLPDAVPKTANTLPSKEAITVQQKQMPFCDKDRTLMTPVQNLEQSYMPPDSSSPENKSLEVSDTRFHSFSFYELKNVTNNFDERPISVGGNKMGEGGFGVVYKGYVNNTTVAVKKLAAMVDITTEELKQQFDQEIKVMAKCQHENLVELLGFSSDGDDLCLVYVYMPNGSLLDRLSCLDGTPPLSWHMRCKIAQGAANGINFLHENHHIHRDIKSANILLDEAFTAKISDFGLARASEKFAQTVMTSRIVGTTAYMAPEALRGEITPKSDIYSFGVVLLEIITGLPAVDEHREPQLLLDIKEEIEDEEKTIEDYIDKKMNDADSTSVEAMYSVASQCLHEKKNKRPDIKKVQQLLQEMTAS
pIC50: −log10 of the molar value.

Look over these answered cases.
- COMPOUND: "Cn1cc(-c2cccc(-c3ncc(-c4cnn(C)c4)c(N4CCCC(CO)C4)n3)c2)cn1 (centres unmarked)"
  READOUT TYPE: "pIC50"
  ENDPOINT VALUE: "> 7.00"
- COMPOUND: "CN(CC1CC(F)(F)C1)c1nc(-c2cccc(-c3cnn(C)c3)c2)ncc1-c1cnn(C)c1"
  READOUT TYPE: "pIC50"
  ENDPOINT VALUE: "6.00 to 7.00"
- COMPOUND: "Cn1cc(-c2cccc(-c3ncc(-c4cnn(C)c4)c(NCC4[C@H]5CNC[C@@H]45)n3)c2)cn1 (some centres unmarked)"
  READOUT TYPE: "pIC50"
  ENDPOINT VALUE: "6.00 to 7.00"

Data request: Please give the measured pIC50 for this compound: `CC(C)Nc1nc(-c2cccc(-c3cnn(C)c3)c2)ncc1-c1cnn(C)c1`
Data returned: 6.00 to 7.00

Data request: Then this compound: `Cc1nnc(-c2cnc(-c3cccc(-c4cnn(C)c4)c3)nc2NCCN2CCS(=O)(=O)CC2)s1`
Data returned: > 7.00

Data request: Then this compound: `Cn1cc(-c2cccc(-c3ncc(-c4cnn(C)c4)c(N4C[C@H](N)CC(F)(F)C4)n3)c2)cn1`
Data returned: 5.30 to 6.00

Data request: Then this compound: Cn1cc(-c2cccc(-c3ncc(-c4cnn(C)c4)c(NC4CCC(CN)CC4)n3)c2)cn1 (centres unmarked)
Data returned: > 7.00

Data request: Then this compound: Cn1cc(-c2cccc(-c3ncc(-c4cnn(C)c4)c(N4CCC(CNS(C)(=O)=O)C4)n3)c2)cn1 (centres unmarked)
Data returned: > 7.00

These data points were gathered from patent US9790221B2.
